System: HEK-293T
experiment: Multiplex assay against HEK293T
Assay type: toxicity, cell-based
test-settings: human, 12 h, 10 µM, compound concentration 10 uM, replicate 1
Could you label it TRUE if measured Population Apoptotic (%) is 40% or higher, and FALSE otherwise?

Field: example entries. Status: answers known.
compound=CCN1CCN(c2ccc(Nc3cc(N(C)C(=O)Nc4c(Cl)c(OC)cc(OC)c4Cl)ncn3)cc2)CC1 assigned_label=FALSE
compound=S=C(NCCCc1c[nH]cn1)NCCCN(Cc1ccc(Cl)c(Cl)c1)c1ccc(Br)cn1 assigned_label=TRUE
compound=CCN1CCN(Cc2ccc(Nc3ncc(F)c(-c4cc(F)c5nc(C)n(C(C)C)c5c4)n3)nc2)CC1.CS(=O)(=O)O assigned_label=TRUE
compound="COc1cc2ncnc(Nc3ccc(F)c(Cl)c3)c2cc1NC(=O)/C=C/CN1CCCCC1 [DACOMITINIB ANHYDROUS]" assigned_label=FALSE
compound=O=C1NC(=O)C(c2cnc3ccccn23)=C1c1cn2c3c(cc(F)cc13)CN(C(=O)N1CCCCC1)CC2 assigned_label=TRUE

Reported Population Apoptotic (%) reaches at least 40% for `Cc1cc(C)c(S(=O)(=O)N(Cc2ccc(-c3cccc(S(C)(=O)=O)c3)cc2)Cc2ccc(C(F)(F)F)o2)c(C)c1` ? TRUE

Please check the record `CCCS(=O)(=O)Nc1ccc(F)c(C(=O)c2c[nH]c3ncc(Cl)cc23)c1F` and state if its Population Apoptotic (%) is at or above 40%. FALSE

Could you verify whether the entry `C=C1/C(=C\C=C2/CCC[C@]3(C)[C@@H]([C@H](C)/C=C/[C@H](C)C(C)C)CC[C@@H]23)C[C@@H](O)C[C@@H]1O` shows Population Apoptotic (%) of no less than 40%? TRUE
